Measured values drawn from paper PMC10397247 for this set.

STUDY TARGET: T1, P2-AA-12HAA-R
T1 chain: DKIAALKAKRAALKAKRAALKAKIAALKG
ASSAY SUMMARY: two-hybrid library CCmax;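 note: natural log of median RNA to DNA barcode read ratio; higher means stronger binding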
MEASUREMENT CONDITIONS: mean of both orientations
Recorded interaction score, one value per entry.
MEASUREMENT TYPE: interaction score

> print(dat)
                                      binder  observed.result
 1  DEIAALEAEEAALEAEEAALEAEIAALEG [P1-AA-12HAA-E]             1.71
 2     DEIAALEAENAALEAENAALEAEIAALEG [P1-AA]             1.86
 3  DEIAALEAERAALEAERAALEAEIAALEG [P1-AA-12HAA-R]            -1.34
 4  DEIAALEAESAALEAESAALEAEIAALEG [P1-AA-12HAA-S]             1.11
 5  DEIAALEAEDAALEAEDAALEAEIAALEG [P1-AA-12HAA-D]             1.84
 6  DEIAALEAEKAALEAEKAALEAEIAALEG [P1-AA-12HAA-K]           -0.283
 7  DEIAALEAEHAALEAEHAALEAEIAALEG [P1-AA-12HAA-H]          -0.0784
 8  DEIAALEAEVAALEAEVAALEAEIAALEG [P1-AA-12HAA-V]             1.69
 9  DEIAALEAEIAALEAEIAALEAEIAALEG [P1-AA-12HAA-I]                2
10  DEIAALEAELAALEAELAALEAEIAALEG [P1-AA-12HAA-L]              1.7
11  DEIAALEAEAAALEAEAAALEAEIAALEG [P1-AA-12HAA-A]            0.883
12  DEIAALEAEYAALEAEYAALEAEIAALEG [P1-AA-12HAA-Y]              1.4
